Origin of measurements: paper PMC8878468

test system: U2OS cells; test: cells; conditions: Homo sapiens, 28 h, read-out: IC50, normalized healthy cell count
pIC50: −log10 of the molar value.
test readout: pIC50

compound smiles: CC[C@@]1(O)C(=O)OCc2c1cc1n(c2=O)Cc2cc3ccccc3nc2-1
recorded measurement: 5.74

----------
system: U2OS cells; settings: read-out: IC 50 26 h; High-Via Extend protocol, Table S2, 26 h; cell line and unit inferred
pIC50: −log10 of the molar value.
test readout: pIC50

molecule: CCC(=O)N1CCN(c2ccc(-n3c(=O)ccc4cnc5ccc(-c6cnc7ccccc7c6)cc5c43)cc2C(F)(F)F)CC1 [torin]
recorded measurement: 6.10
--
molecule: Cc1sc2c(c1C)C(c1ccc(Cl)cc1)=N[C@@H](CC(=O)OC(C)(C)C)c1nnc(C)n1-2 [JQ1]
recorded measurement: 5.05

----------
test system: HCT116-FUCCI cells; experiment: FUCCI cell cycle assay with nuclear gating; type: cell-based, human; conditions: Homo sapiens, 32h, average and SEM of two independent experiments, read-out: IC50(32h), normalized healthy cell count

compound smiles: CNC(=O)c1nn(C)c2c1C(C)(C)Cc1cnc(Nc3ccc(N4CCN(C)CC4)cc3)nc1-2
IC50 / nM: 1990

----------
tested on: U2OS cells; test: cells; conditions: Homo sapiens, 14 h, read-out: IC50, normalized healthy nuclear count

compound smiles: CC[C@@]1(O)C(=O)OCc2c1cc1n(c2=O)Cc2cc3ccccc3nc2-1
IC50 [µM]: 6.1

----------
test system: U2OS cells; assay: cells; details: Homo sapiens, 42 h, read-out: IC50, normalized healthy nuclear count
pIC50: −log10 of the molar value.
test readout: pIC50

molecule: CC[C@@]1(O)C(=O)OCc2c1cc1n(c2=O)Cc2cc3ccccc3nc2-1 [camptothecin]
test readout: pIC50
recorded measurement: 6.36
